# maps each entry to its IC50
- experimentalTarget: Lysophosphatidylserine lipase ABHD12 (Mus musculus, UniProt Q99LR1)
- Sequence (Q99LR1 whole entry): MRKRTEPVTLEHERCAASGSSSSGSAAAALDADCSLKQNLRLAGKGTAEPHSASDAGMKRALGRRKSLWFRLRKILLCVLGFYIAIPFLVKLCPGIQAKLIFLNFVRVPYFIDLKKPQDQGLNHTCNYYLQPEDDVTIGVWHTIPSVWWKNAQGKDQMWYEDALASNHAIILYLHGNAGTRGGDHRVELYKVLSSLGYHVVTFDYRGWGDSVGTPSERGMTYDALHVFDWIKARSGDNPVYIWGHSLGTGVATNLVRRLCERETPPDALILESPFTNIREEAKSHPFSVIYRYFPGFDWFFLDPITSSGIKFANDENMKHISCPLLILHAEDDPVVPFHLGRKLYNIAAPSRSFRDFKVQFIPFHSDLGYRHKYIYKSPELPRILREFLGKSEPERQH
- methodDescription: Inhibition of JJH350 binding to ABHD12 in mouse brain membrane proteome incubated for 20 mins by CuAAC fluorescence dependent gel-based competitive ABPP assay
- Assay type: cell membranes

Data request: Request the reported IC50 associated with Cc1cnc(N2CCN(NC(=S)Nc3cccnc3)CC2)c(Cl)c1
Data returned: > 50000 nM

Data request: Now consider FC(F)(F)Oc1ccc(Oc2ccnc(N3CCC(NC(=S)Nc4cccnc4)CC3)c2C(F)(F)F)cc1 and answer again.
Data returned: 2800 nM

Data request: Now consider S=C(Nc1cccnc1)NC1CCN(c2cc(Oc3ccccc3)ccn2)CC1 and answer again.
Data returned: 1900 nM

Data request: Now consider FC(F)(F)c1cccnc1N1CCC(NC(=S)Nc2cccnc2)CC1 and answer again.
Data returned: > 5000 nM

Next:
Data request: Request the reported IC50 associated with FC(F)(F)c1cc(Cl)nc(N2CCC(NC(=S)Nc3cccnc3)CC2)c1
Data returned: 540 nM
